Origin of measurements: paper PMC7771068

Molecular target: A3G-NTD-R24A-CTD2 (Homo sapiens, UniProt Q9HC16 1-384, R24A;P200A;L234K;N236A;C243A;P247K;F310K;Q318K;C321A;Q322K;C356A)
Sequence (Q9HC16 whole entry R24A/P200A/L234K/N236A/C243A/P247K/F310K/Q318K/C321A/Q322K/C356A): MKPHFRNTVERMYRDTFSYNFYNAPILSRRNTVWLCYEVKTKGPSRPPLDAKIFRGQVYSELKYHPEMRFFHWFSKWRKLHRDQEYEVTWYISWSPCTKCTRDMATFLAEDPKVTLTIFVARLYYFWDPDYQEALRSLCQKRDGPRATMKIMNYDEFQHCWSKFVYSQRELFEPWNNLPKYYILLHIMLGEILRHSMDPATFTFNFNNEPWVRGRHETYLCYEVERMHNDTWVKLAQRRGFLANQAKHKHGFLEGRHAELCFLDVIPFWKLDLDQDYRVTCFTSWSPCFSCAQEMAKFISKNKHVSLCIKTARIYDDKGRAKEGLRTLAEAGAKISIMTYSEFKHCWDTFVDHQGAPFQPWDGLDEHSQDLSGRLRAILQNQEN
Experiment: MST
# key: entry, value: pKd
// scale note: pKd = -log10(conc_M); give the bare number

AATTCCAATTTTTTTT (ssDNA) [16-nt CC (5'-TCC-polyT)] | 3.88

Please find the next binder below.
Exam item: Sample AATCCCAATTTTTTTT (ssDNA) [16-nt CCC (5'-TCCC-polyT)] — what was its pKd?
Marked response: 4.61
